- target.or.test.system: TXA2 /prostaglandin H2 receptor (Cavia porcellus, UniProt A0A286Y4I8)
- Construct: platelet rich plasma (PRP) was collected; endogenous in cells; host or cells: platelets in platelet rich plasma from male guinea pigs (Hartley strain)
- Sequence (A0A286Y4I8 1-347): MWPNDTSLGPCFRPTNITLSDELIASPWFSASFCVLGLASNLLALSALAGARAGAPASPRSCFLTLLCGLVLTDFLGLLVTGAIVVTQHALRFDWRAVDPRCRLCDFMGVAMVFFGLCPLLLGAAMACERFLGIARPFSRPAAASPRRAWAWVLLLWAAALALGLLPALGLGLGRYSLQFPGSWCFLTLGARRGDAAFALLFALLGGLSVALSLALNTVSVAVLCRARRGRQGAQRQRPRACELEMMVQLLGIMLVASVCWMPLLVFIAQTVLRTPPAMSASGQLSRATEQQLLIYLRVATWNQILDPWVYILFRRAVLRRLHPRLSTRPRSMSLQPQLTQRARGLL
- assay.summary: Test on Anti-platelet Activity (TXA2 Antagonizing Test): inhibition of U-46619-induced platelet aggregation in guinea pig platelet rich plasma
- Assay type: cell-based
- condition.summary: minimum concentration inhibiting platelet aggregation by 30% or more; U-46619 0.5-1 μM; guinea pig PRP; 3 minutes pretreatment
Field: TXA2 Antagonizing Activity (MEC). Provide a value for each of the molecules that follow.

// query I have this molecule here, O=C(O)c1ccc2c(c1)C(SCCNS(=O)(=O)c1ccc(F)cc1)c1ccccc1CO2 (centres unmarked) [Compound 10b] , and I need its recorded TXA2 Antagonizing Activity (MEC).
// result 0.3 µg/mL

// query Another: COc1ccccc1C(=O)NCCSC1c2ccccc2COc2ccc(C(=O)O)cc21 (centres unmarked) [Compound 33b]
// result 0.3 µg/mL

// query Another: O=C(O)c1ccc2c(c1)C(SCCNS(=O)(=O)c1cccs1)c1ccccc1CO2 (centres unmarked) [Compound 15b]
// result 0.3 µg/mL

// query Another: O=C(O)c1ccc2c(c1)C(SCCNS(=O)(=O)c1ccccc1)c1cc(Br)ccc1CO2 (centres unmarked)
// result 0.03 µg/mL

// query Another: O=C(O)c1ccc2c(c1)C(SCCNS(=O)(=O)c1cccc3cccnc13)c1ccccc1CO2 (centres unmarked) [Compound 16b]
// result 3 µg/mL

// query Another: O=C(O)Cc1ccc2c(c1)/C(=C/CCNS(=O)(=O)c1ccccc1)c1ccccc1CO2 [Compound E-29b]
// result 1 µg/mL

// query Another: O=C(O)COc1ccc(CCNS(=O)(=O)c2ccccc2)cc1 [BM13177, reference compound]
// result 3 µg/mL

// query Another: O=C(O)c1ccc2c(c1)C(SCCNS(=O)(=O)c1ccccc1)c1ccccc1CS2 (centres unmarked) [Compound 55b]
// result 3 µg/mL
